Hey, just so you know, these numbers are from patent US8877778B2.

These records show Ki for human D3 receptor (Homo sapiens (Human)).
Answers are plain numbers, in nM.

Below, each entry is followed by its recorded Ki result.
[
  {
    "compound": "COCCC(=O)N[C@H]1CC[C@H](CCN2CCC(c3cccc4occc34)CC2)CC1",
    "study target": "human D3 receptor (Homo sapiens (Human))",
    "unit of measurement": "nM",
    "Ki": 3.1
  },
  {
    "compound": "CC(C)CCC(=O)N[C@H]1CC[C@H](CCN2CCC(c3cccc4c3CCO4)CC2)CC1",
    "study target": "human D3 receptor (Homo sapiens (Human))",
    "unit of measurement": "nM",
    "Ki": 9.97
  }
]

For every listed record, write down its Ki.
1. CC#CC(=O)N[C@H]1CC[C@H](CCN2CCC(c3cccc4c3CCO4)CC2)CC1
2. O=C(N[C@H]1CC[C@H](CCN2CCC(c3cccc4c3CCO4)CC2)CC1)C1CCOC1 (mixture of isomers)
3. O=C(N[C@H]1CC[C@H](CCN2CCC(c3cccc4c3CCO4)CC2)CC1)c1ccc(-n2cccc2)cc1
4. O=C(N[C@H]1CC[C@H](CCN2CCC(c3cccc4c3CCO4)CC2)CC1)c1ccc(N2CCS(=O)(=O)CC2)cc1
5. O=C(N[C@H]1CC[C@H](CCN2CCC(c3cccc4c3CCO4)CC2)CC1)c1ccc2ncccc2c1

1. 7.3
2. 5.5
3. 10.5
4. 5.62
5. 4.35

Ki recorded for this compound, CC(C)CC(=O)N[C@H]1CC[C@H](CCN2CCC(c3cccc4c3CCO4)CC2)CC1 , is 5.2
